Ref: paper PMC13494018

- tgt: CD276, Q5ZPR3
- Sequence (Q5ZPR3 whole entry): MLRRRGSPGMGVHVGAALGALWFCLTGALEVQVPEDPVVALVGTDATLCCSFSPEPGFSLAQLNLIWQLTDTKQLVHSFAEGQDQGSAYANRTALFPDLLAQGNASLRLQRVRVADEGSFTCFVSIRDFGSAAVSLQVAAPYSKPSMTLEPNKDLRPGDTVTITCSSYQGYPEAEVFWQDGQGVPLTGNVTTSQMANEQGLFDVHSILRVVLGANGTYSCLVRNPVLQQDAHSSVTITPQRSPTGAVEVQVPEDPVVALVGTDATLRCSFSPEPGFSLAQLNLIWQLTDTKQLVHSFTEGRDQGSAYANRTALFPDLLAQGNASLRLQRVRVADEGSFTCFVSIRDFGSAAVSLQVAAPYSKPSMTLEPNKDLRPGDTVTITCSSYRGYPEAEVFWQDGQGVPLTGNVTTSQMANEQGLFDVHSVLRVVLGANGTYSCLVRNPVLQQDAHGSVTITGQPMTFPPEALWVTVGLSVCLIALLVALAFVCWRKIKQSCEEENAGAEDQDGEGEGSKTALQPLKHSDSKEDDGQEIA

binder	binding in a display sort
design_618_d4ffd631-0ea2-432e-ba0f-bd3d6297b2a0_1177_dldesign_0_cycle1_af2pred (protein) AQATLASAQALTNAAETALKTSPEYAPLALQLAQQGIELAKQAAKEGAKEDPATAKEAKEVQKKAEEVAKQAQKILA	not found (inactive)
design_621_7e0052dc-ae49-49a0-b99f-9f3ee649cc2f_591_dldesign_0_cycle1_af2pred (protein) GEEEEKKKEVIEKRQEVLKLLAEAVRVGMEADPELASKAASESLELIAKADKYLKEGKYEEALAELEKAKEYVEKMLKEAKALLAAKL	not found (inactive)
design_621_7e0052dc-ae49-49a0-b99f-9f3ee649cc2f_2346_dldesign_0_cycle1_af2pred (protein) AEVAEIAKKTAEEVKKLIEAGAPAEEAAAVLNAGIAAVIKAAKAAGPASAADLGKAMDIFKETAELIVAYERERAAEAA	not found (inactive)
